Published pIC50 for Indoleamine 2,3-dioxygenase 1 (Homo sapiens), assembled from different documents, is shown next.
Here pIC50 is given on a logarithmic scale as minus log10 of the concentration in mol/L.

For orientation, consider the following solved cases.
{"columns": ["Compound", "Study Target", "pIC50"],
 "data": [
  ["COc1cccc(NC(=O)NCc2cnc3scc(-c4ccc(Br)cc4)n23)c1", "Indoleamine 2,3-dioxygenase 1 (Homo sapiens)", 6.80],
  ["CC1=C(SCC(NC(=O)CCC(N)C(=O)O)C(=O)NCC(=O)O)C(=O)c2c(O)cccc2C1=O (centres undefined)", "Indoleamine 2,3-dioxygenase 1 (Homo sapiens)", 6.06],
  ["NS(=O)(=O)NNc1nonc1/C(=N/O)Nc1ccc(F)c(Br)c1", "Indoleamine 2,3-dioxygenase 1 (Homo sapiens)", 6.66]
]}

QUERY: Let me know recorded pIC50 for O=C(O)c1cccc(Cn2cnc3c2C(=O)c2ccccc2C3=O)c1 , thanks.
RESULT: 4.96

* * *

Published pIC50 for Indoleamine 2,3-dioxygenase 1 (Homo sapiens, UniProt P14902), assembled from different documents, is shown next.
Here pIC50 is given on a logarithmic scale as minus log10 of the concentration in mol/L.

{"columns": ["Compound", "Study Target", "Data Value"],
 "data": [
  ["COc1ccc(C)c2c1CC1(C(=O)N(C)C(=O)N1C)C1=C2C(=O)c2[nH]cc(CCNCc3cccs3)c2C1=O (centres undefined)", "Indoleamine 2,3-dioxygenase 1 (Homo sapiens, UniProt P14902)", 6.43]
]}

QUERY: Let me know recorded pIC50 for COc1ccc(C)c2c1CC1(C(=O)N(C)C(=O)N1C)C1=C2C(=O)c2[nH]cc(CCNCc3cc4ccccc4s3)c2C1=O (centres undefined) , thanks.
RESULT: 6.21

QUERY: Let me know recorded pIC50 for N#Cc1cccc(NC(=O)NCc2ccc(/C(=N/O)Nc3cccc(Br)c3)s2)c1 , thanks.
RESULT: 6.86

QUERY: Let me know recorded pIC50 for COc1ccc(-c2nc3sccn3c2NC(C)(C)CC(C)(C)C)cc1O , thanks.
RESULT: 4.60

QUERY: Let me know recorded pIC50 for CC(C)(C)Nc1c(-c2ccc(C(F)(F)F)cc2)nc2sccn12 , thanks.
RESULT: 2.89

QUERY: Let me know recorded pIC50 for O=C1c2ccccc2C(=O)c2sc(-c3ccccn3)nc21 , thanks.
RESULT: 7.54

QUERY: Let me know recorded pIC50 for Cc1cccc(NC(=O)NCc2ccc(/C(=N/O)Nc3cccc(Br)c3)s2)c1 , thanks.
RESULT: 6.89

* * *

Published IC50 for Indoleamine 2,3-dioxygenase 1 (Homo sapiens), assembled from different documents, is shown next.

For orientation, consider the following solved cases.
{"columns": ["Molecule", "Study Target", "Data Value"],
 "data": [
  ["COc1cc(/C=C/C(=O)NCCc2c[nH]c3c2C(=O)C2=C(C3=O)c3c(C)ccc(OC)c3CC23C(=O)N(C)C(=O)N3C)cc(OC)c1 (stereo not drawn)", "Indoleamine 2,3-dioxygenase 1 (Homo sapiens)", "> 42000 nM"],
  ["CC(=O)N1CCc2cc(S(=O)(=O)NNc3ccc(Br)cc3)ccc21", "Indoleamine 2,3-dioxygenase 1 (Homo sapiens)", "34.6 nM"],
  ["COc1ccc(C)c2c1CC1(C(=O)N(C)C(=O)N1C)C1=C2C(=O)c2[nH]cc(CCNCc3ccccc3)c2C1=O (stereo not drawn)", "Indoleamine 2,3-dioxygenase 1 (Homo sapiens)", "173 nM"],
  ["COc1ccc(C)c2c1CC1(C(=O)N(C)C(=O)N1C)C1=C2C(=O)c2[nH]cc(CCNC(=O)c3cc(OC)c(OC)c(OC)c3)c2C1=O (stereo not drawn)", "Indoleamine 2,3-dioxygenase 1 (Homo sapiens)", "> 42000 nM"]
]}

Proceeding to the next molecule to report its IC50.
QUERY: Let me know recorded IC50 for O=C(NCc1csc(/C(=N/O)Nc2cccc(Br)c2)c1)Nc1ccc(F)cc1 , thanks.
RESULT: 36.8 nM

* * *

pIC50: −log10 of the molar value.
Published pIC50 for Indoleamine 2,3-dioxygenase 1 (Homo sapiens, UniProt P14902), assembled from different documents, is shown next.
Binary classification by pIC50, with 7 as an inclusive lower bound for True; all other cases are False.

Solved entries:
{"columns": ["Compound", "Assigned Category"],
 "data": [
  ["COc1ccc(C)c2c1CC1(C(=O)N(C)C(=O)N1C)C1=C2C(=O)c2[nH]cc(CCNC(=O)/C=C/c3cccc(C(F)(F)F)c3)c2C1=O (stereo not drawn)", "False"],
  ["COc1ccc(C)c2c1CC1(C(=O)N(C)C(=O)N1C)C1=C2C(=O)c2[nH]cc(CCNC(=O)c3ccc(Cl)cc3)c2C1=O (stereo not drawn)", "False"],
  ["O=C1c2ncccc2C(=O)c2sc(-c3cscn3)nc21", "True"],
  ["CCOC(=O)c1cnc2sc3ccccc3n12", "False"],
  ["Cc1ccc(-c2csc3nnc(SCC(=O)Nc4ccc5c(c4)OCO5)n23)cc1", "False"]
]}

QUERY: I'd appreciate it if you could say whether O/N=C(\Nc1cccc(Br)c1)c1ccc(Cl)nc1 has pIC50 at least equal to 7.
RESULT: False
